target: T1, Recombinant TGF-β receptor 2 protein (10358-H03H-B; Sino Biological Inc.) (UniProt P37173 23-166); test: SPR; Biacore T200, 25 °C; TβR2 amine-coupled to a CM5 chip; peptides in PBS injected at 60 μl/min, 180 s injection, 540 s dissociation; 1:1 binding model; conditions: both partners purified
T1 construct: TGF-β receptor 2, recombinant, 43.4 kDa; also called TβR2; type 2 TGF-β receptor; source: bought: Sino Biological Inc. (>95% as determined by SDS-PAGE)
T1 sequence (P37173 23-166): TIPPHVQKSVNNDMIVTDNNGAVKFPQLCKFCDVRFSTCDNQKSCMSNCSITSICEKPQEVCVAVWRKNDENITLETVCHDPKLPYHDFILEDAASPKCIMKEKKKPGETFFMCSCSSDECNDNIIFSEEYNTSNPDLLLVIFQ
READOUT NAME: Kd (nM)
Numbers only here, please. The scale is nM.

Kd recorded for this binder, FQGTFPDGFLWAVGSAAYQTEGGWQQHGKG (peptide, UniProt Q9UEF7 57-86, looked up, Klotho, human; peptide of 30 amino acids from Phe57 to Gly86; 3.229 kDa; the results give Phe57 to Gly86; source: synthetic peptide (GenScript, >95% purity)) [Klotho-derived peptide 1 (KP1)] , is 1410
